Please go through the items and note down their cell viability.
# Test system: NOMO1
# assayNotes: cell viability relative to DMSO control; higher = less cytotoxic
# assaySetup: RPMI 5 mM glucose + 10% dialyzed FBS; 48 h; 0.569 µM
One number for each entry, in %.

The following compounds have reported results that may help.
Recall and state the measured cell viability for C[C@@H]1CCN(C(=O)CC#N)C[C@@H]1N(C)c1ncnc2[nH]ccc12 . 69.3

Recall and state the measured cell viability for CC(C)=CCC/C(C)=C/CC/C(C)=C/CC/C(C)=C/CC/C(C)=C/CC/C(C)=C/CC/C(C)=C/CC/C(C)=C/CC/C(C)=C/CO . 94.4

Recall and state the measured cell viability for C[C@]12Cc3cn[nH]c3C[C@@H]1CC[C@@H]1[C@@H]2CC[C@@]2(C)[C@H]1CC[C@]2(C)O . 103

Recall and state the measured cell viability for C/C(=N\NC(=S)N1CCC1)c1ccccn1 . 6.69

Recall and state the measured cell viability for C[N]1C=C(C2=CC=CC=C12)\C3=C(\C(=O)NC3=O)C4=C[N](C5CCN(CC5)CC6=NC=CC=C6)C7=C4C=CC=C7 . 118

Recall and state the measured cell viability for CN(C)c1ccc2nc3ccc(N(C)C)cc3[s+]c2c1 . 102

Recall and state the measured cell viability for CCn1c(-c2nonc2N)nc2c(C#CC(C)(C)O)ncc(OC[C@H]3CCCNC3)c21 . 74.4

Recall and state the measured cell viability for Cc1c(-c2cccc3c(CCCOc4cccc5ccccc45)c(C(=O)O)n(Cc4cccnc4)c23)c(COc2ccc(N3CCN([S+](=O)([O-])N(C)C)CC3)cc2)nn1C . 86

Recall and state the measured cell viability for CC(=O)OC[C@H]1O[C@@H]([S-])[C@H](OC(C)=O)[C@@H](OC(C)=O)[C@@H]1OC(C)=O.CCP(CC)CC.[Au+] . 95.4

Recall and state the measured cell viability for O=C1CCC[C@@H]2[C@H]3CCCN4CCC[C@@H](CN12)[C@@H]34 . 69.3

Hi, could you look up cell viability for each item in my list?
1. CCc1cc(C(N)=S)ccn1
2. OC1=CC2=C(C=C1)C(=O)\C(=C(O2)\C3=CC(=C(O)C=C3)O)O

1. 137
2. 93.3
